- target desc: T1, Purified human recombinant renin (human, UniProt P00797 67-406)
- T1 sequence (looked up): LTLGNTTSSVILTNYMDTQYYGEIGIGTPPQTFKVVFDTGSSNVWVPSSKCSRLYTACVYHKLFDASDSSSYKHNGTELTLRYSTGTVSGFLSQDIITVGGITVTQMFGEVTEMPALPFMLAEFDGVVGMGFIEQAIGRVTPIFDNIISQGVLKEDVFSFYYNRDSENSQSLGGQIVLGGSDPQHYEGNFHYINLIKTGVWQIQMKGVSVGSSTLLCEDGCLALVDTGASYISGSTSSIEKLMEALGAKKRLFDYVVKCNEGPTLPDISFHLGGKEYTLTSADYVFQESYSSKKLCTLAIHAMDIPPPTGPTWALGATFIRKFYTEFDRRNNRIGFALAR
- test: cell-based or functional assay
observation type: RENIN INHIBITION % (%)
Numbers only, in %.

// below: answered binders
{"binder": "YPRE [SEQ ID NO. 19]", "RENIN INHIBITION %, %": 22.2}
{"binder": "HPGAG [SEQ ID NO. 16]", "RENIN INHIBITION %, %": 21.2}
{"binder": "YAGVSLI [SEQ ID NO. 21]", "RENIN INHIBITION %, %": 36}
{"binder": "SNILEAA [SEQ ID NO. 20]", "RENIN INHIBITION %, %": 24}
{"binder": "WMP [SEQ ID NO. 15]", "RENIN INHIBITION %, %": 43.4}

API: the following record is the query input.
So for WPHT [SEQ ID NO. 18] , the logged RENIN INHIBITION % turned out to be 9.3
